Entries and their IC50
tested on: MV-4-11; assay: Oncology cell growth assay MV-4-11 (CellTiter Glo, 72 hours); assay type: cell-based; details: Homo sapiens, MV4-11, 72 h; MV-4-11 cell growth inhibitory activity, 3d

molecule | IC50
Cc1noc(C)c1-c1cnc2c(-c3cn[nH]c3)cn(C(C)c3ccccc3)c2c1 (centres unmarked) [P-0199] | ≤ 1 µM
CCCS(=O)(=O)n1cc(-c2cnn(C3CCOC3)c2)c2ncc(-c3c(C)noc3C)cc21 (centres unmarked) [P-0154] | ≤ 1 µM
Cc1noc(C)c1-c1cnc2c(c1)c(Sc1ccccc1)cn2C1CCOC1 (centres unmarked) [P-0180] | 1 to 10 µM
Cc1noc(C)c1-c1cnc2[nH]c(C)c(Cc3cccnc3)c2c1 [P-0005] | ≤ 1 µM
Cc1noc(C)c1-c1cnc2c(-c3cnn(C)c3)cn(Cc3cc(F)ccc3Cl)c2c1 [P-0190] | ≤ 1 µM

* * *

system: MV-4-11; assay: Oncology cell growth assay MV-4-11 (CellTiter Glo, 72 hours); format: cell-based; details: Homo sapiens, MV4-11, 72 h; MV-4-11 cell growth inhibitory activity, 3d

compound | IC50
COc1ncc(C(O)c2c[nH]c3ncc(-c4c(C)noc4C)cc23)cc1F (stereo not shown) | 1 to 10 µM
Cc1noc(C)c1-c1cnc2c(-c3cnn(C)c3)cn(Cc3ccccc3OC(F)(F)F)c2c1 | ≤ 1 µM
Cc1noc(C)c1-c1cnc2c(-c3cnn(C(F)F)c3)cn(S(=O)(=O)C3CCC3)c2c1 | ≤ 1 µM
Cc1noc(C)c1-c1cnc2c(-c3cnn(C)c3)cn(C(C(=O)O)c3ccccc3)c2c1 (stereo not shown) | 1 to 10 µM
